- Test system: Alopecurus myosuroides (ALOMY)
- TEST NAME: Glasshouse assay for herbicidal activity (pre- and post-emergence), percentage phytotoxicity
- Assay type: in vivo
- RECORDED CONDITIONS: Alopecurus myosuroides, pre-emergence, 480 h, 250 g/ha; pre-emergence; 20 DAA; visual assessment (100%=total damage, 0%=no damage); read-out: Pre-emergence herbicidal activity (percentage phytotoxicity) ALOMY PRE
MEASURE NAME: pest or weed control at 250 g/ha
Just the number plus its unit, please.

Look over these answered cases.
>  <COMPOUND>
Cc1cc(-c2ncc(F)cc2F)cc(C)c1C1C(=O)CC(CC(=O)NCc2ccc(F)cc2)C1=O (stereo not shown) [Compound B72]

>  <TESTED TARGET>
Alopecurus myosuroides (ALOMY)

>  <EXPERIMENTAL VALUE>
100%

$$$$
>  <COMPOUND>
CONC(=O)CC1CC(=O)C(c2c(C)cc(C)cc2C)C1=O (stereo not shown) [Compound B96]

>  <TESTED TARGET>
Alopecurus myosuroides (ALOMY)

>  <EXPERIMENTAL VALUE>
0%

$$$$
>  <COMPOUND>
Cc1cc(-c2ncc(Cl)cc2F)cc(C)c1C1C(=O)CC(CC(=O)NC(C)C)C1=O (stereo not shown) [Compound B118]

>  <TESTED TARGET>
Alopecurus myosuroides (ALOMY)

>  <EXPERIMENTAL VALUE>
100%

$$$$

# context switch: different compound, same pest or weed control at 250 g/ha
## Input Supply reported pest or weed control at 250 g/ha belonging to this compound: Cc1cc(-c2ncc(Cl)cc2F)cc(C)c1C1C(=O)CC(CC(=O)NCC(C)C)C1=O (stereo not shown) [Compound B124]
## Output 90%

* * *

- Tested on: Lolium perenne (LOLPE)
- TEST NAME: Glasshouse assay for herbicidal activity (pre- and post-emergence), percentage phytotoxicity
- Assay type: in vivo
- RECORDED CONDITIONS: Lolium perenne, pre-emergence, 480 h, Rate 250 g/ha; pre-emergence; visual assessment 20 DAA; 100%=total damage, 0%=no damage; read-out: Pre-emergence herbicidal activity (percentage phytotoxicity) LOLPE PRE
MEASURE NAME: pest or weed control at 250 g/ha (%)
Write down the numeric answer in % and omit the unit.

Look over these answered cases.
>  <COMPOUND>
Cc1cc(-c2ncc(Cl)cn2)cc(C)c1C1=C(OC(=O)N2CCCC2)CC(CC(=O)NC(C)(C)C)C1=O (centres unmarked)

>  <EXPERIMENTAL VALUE>
50

$$$$
>  <COMPOUND>
C#CCN(C)C(=O)CC1CC(=O)C(c2c(C)cc(-c3ccc(Cl)cn3)cc2C)C1=O (centres unmarked)

>  <EXPERIMENTAL VALUE>
100

$$$$
>  <COMPOUND>
C#CCN(C)C(=O)CC1CC(=O)C(c2c(C)cc(-c3ccc(F)cn3)cc2C)C1=O (centres unmarked)

>  <EXPERIMENTAL VALUE>
100

$$$$
>  <COMPOUND>
COCC(C)(C)NC(=O)CC1CC(=O)C(c2c(C)cc(-c3ncc(Cl)cn3)cc2C)C1=O (centres unmarked)

>  <EXPERIMENTAL VALUE>
80

$$$$
>  <COMPOUND>
COCC(C)NC(=O)CC1CC(=O)C(c2c(C)cc(-c3ccc(Cl)cn3)cc2C)C1=O (centres unmarked)

>  <EXPERIMENTAL VALUE>
100

$$$$
>  <COMPOUND>
CCN(C)C(=O)CC1CC(=O)C(c2c(C)cc(-c3ccc(F)cn3)cc2C)C1=O (centres unmarked)

>  <EXPERIMENTAL VALUE>
100

$$$$
>  <COMPOUND>
Cc1cc(-c2ccc(F)cn2)cc(C)c1C1C(=O)CC(CC(=O)NCc2cccs2)C1=O (centres unmarked)

>  <EXPERIMENTAL VALUE>
70

$$$$

## Input Recall the reported pest or weed control at 250 g/ha of Cc1cc(-c2ccc(Cl)cn2)cc(C)c1C1C(=O)CC(CC(=O)NCc2cccs2)C1=O (centres unmarked) on Lolium perenne (LOLPE) and write it down.
## Output 100

Cited source for all entries: patent US10206394B2
